# experimental-system: T1, His6-BRD^Baz2B (bromodomain of human Baz2B, wild-type) (human, UniProt Q9UIF8 2054-2168, fluorescent label (Monolith NT Protein Labelling Kit RED-NHS))
# T1 construct: bromodomain (BRD) of human Baz2B, from plasmid pNIC28-Bsa4-BAZ2B-BRD; also called BAZ2B-BRD; source: E. coli BL21(DE3)-R3-pRARE2, purified (Ni-NTA, Sephadex 75)
# T1 sequence: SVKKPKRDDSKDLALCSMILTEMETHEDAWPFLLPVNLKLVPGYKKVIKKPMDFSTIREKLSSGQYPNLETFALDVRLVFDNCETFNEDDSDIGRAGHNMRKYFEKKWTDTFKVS
# procedure-text: MST; 100 nM fluorescently labelled (RED-NHS) BRD^Baz2B, peptide (H3 or H3K14ac) titrated; MST buffer 150 mM Tris-HCl, 50 mM NaCl, 10 mM MgCl2, pH 7.6, 0.0025% Pluronic, 200 ng/ul BSA; 25 C, 20% MST power; at least triplicate
# condition-info: both partners purified
measured-quantity: Kd (µM)

binder: Ac-TARKSTGGKAPRKQL-NH2 (N-terminal tail of histone H3, residues 6-20; also called unmodified H3 peptide; unmodified H3K14 tail peptide; source: synthetic peptide, bought: alta Bioscience) [H3 peptide (Ac-TARKSTGGKAPRKQL-NH2)]
measured-quantity: Kd
qualifier: >
meas-value: 288

binder: Ac-TARKSTGGK(Ac)APRKQL-NH2 (N-terminal tail of histone H3, residues 6-20; also called acetylated H3 tail peptide; acetylated at K14 (K14ac) N-terminal H3 histone tail peptide; source: synthetic peptide, bought: alta Bioscience) [H3K14ac peptide (Ac-TARKSTGGK(ac)APRKQL-NH2)]
measured-quantity: Kd
qualifier: =
meas-value: 16
